- Organism: Rattus norvegicus
- assay: Open TG-GATES - Regimen: Daily Repeat
- Assay type: toxicity, organism-based, Sprague-Dawley
- Design: regimen Daily Repeat, gender Male, age 6 weeks
- recorded conditions: in vivo, po, 1000 mg/kg, 72 h, tissue Plasma, route gavage, dose level High, time 3 day
test readout: DBIL (mg/dL)
Answers are plain numbers, in mg/dL.

Previously resolved entries follow.
COc1ccc2[nH]c([S+]([O-])Cc3ncc(C)c(OC)c3C)nc2c1 (stereo unspecified) [OMEPRAZOLE] | 0.094
CCOc1ccc(NC(=O)CC(C)O)cc1 (stereo unspecified) [BUCETIN] | 0.028
CC(C)OC(=O)C(C)(C)Oc1ccc(C(=O)c2ccc(Cl)cc2)cc1 [FENOFIBRATE] | 0.022
COC1=CC(=O)C[C@@H](C)[C@]12Oc1c(Cl)c(OC)cc(OC)c1C2=O [GRISEOFULVIN] | 0.074
CCOC(=O)CCC(=O)O[C@H]1[C@H](O[C@@H]2[C@@H](C)[C@H](O[C@H]3C[C@@](C)(OC)[C@@H](O)[C@H](C)O3)[C@@H](C)C(=O)O[C@H](CC)[C@@](C)(O)[C@H](O)[C@@H](C)C(=O)[C@H](C)C[C@@]2(C)O)O[C@H](C)C[C@@H]1N(C)C [ERYTHROMYCIN ETHYLSUCCINATE] | 0.002

Query: Look at this molecule and give its reported DBIL. NC(N)=Nc1nc(CSCCC(N)=NS(N)(=O)=O)cs1 [FAMOTIDINE]
Reply: 0.088
